Origin of measurements: the supplement of paper PMC9233669

System: biotinyl-Ile-oxazolone
assayMethodText: self-aminoacylation, catalytic enhancement (BIO) (fold over background); higher = more active; k-Seq, kA / k0A0; sequences stand for … in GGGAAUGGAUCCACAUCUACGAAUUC…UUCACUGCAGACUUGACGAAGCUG
Variants at the floor of the assay were thinned out.
quantityName: self-aminoacylation

INSERT INTO results (biosequence, studytarget, quantityname, endpointresult) VALUES
  ('AUUCACUUAGGUCAUCGGCUG [Fam2.2 aminoacylation ribozyme variant]', 'biotinyl-Ile-oxazolone', 'self-aminoacylation', 1.46),
  ('AUUACCCUGGUCCUCGAGAGA [Fam2.1 aminoacylation ribozyme variant]', 'biotinyl-Ile-oxazolone', 'self-aminoacylation', 0.884),
  ('CUACUUCAAACAAGCGCUCUG [Fam1A.1 aminoacylation ribozyme variant]', 'biotinyl-Ile-oxazolone', 'self-aminoacylation', 0.868),
  ('UUUCACCUAGGUAAUCGGGUG [Fam2.2 aminoacylation ribozyme variant]', 'biotinyl-Ile-oxazolone', 'self-aminoacylation', 2.1),
  ('AUUCACCUAGGGCAUCGGGUG [Fam2.2 aminoacylation ribozyme variant]', 'biotinyl-Ile-oxazolone', 'self-aminoacylation', 2.78);

###

Parameter self-aminoacylation: see the listing below.
Test system: biotinyl-Val-oxazolone
assayMethodText: self-aminoacylation, catalytic enhancement (BVO) (fold over background); higher = more active; k-Seq, kA / k0A0; sequences stand for … in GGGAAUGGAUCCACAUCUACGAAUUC…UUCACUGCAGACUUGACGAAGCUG
Fewer inactive variants are shown than the library holds.
quantityName: self-aminoacylation

INSERT INTO assay_data (biosequence, endpointresult) VALUES
  ('AUUACCCUGGUCUUCGACUGA [Fam2.1 aminoacylation ribozyme variant]', 0.737),
  ('AUUCACCAAGGUCAGCGGGUG [Fam2.2 aminoacylation ribozyme variant]', 3.95),
  ('UUUCGCCUAGGUCAUCGGGUG [Fam2.2 aminoacylation ribozyme variant]', 5.33),
  ('AAGGUUUCUAAUAGUCGCAAG [Fam3.1 aminoacylation ribozyme variant]', 1.53),
  ('AUUCCCCAGGUCAUCGAGUGA [Fam2.1 aminoacylation ribozyme variant]', 3.75),
  ('AUUAGCCUGGUCAUCAAGUGA [Fam2.1 aminoacylation ribozyme variant]', 2.45),
  ('GGUACCCUGGUCAUCGAGUGA [Fam2.1 aminoacylation ribozyme variant]', 6.65),
  ('CCACACUUGAAGCGAUCGGUC [Fam1B.1 aminoacylation ribozyme variant]', 1.39),
  ('CUGCUUCAAACCAUCGGUCUG [Fam1A.1 aminoacylation ribozyme variant]', 0.887);

###

Test system: biotinyl-Phe-oxazolone
assayMethodText: self-aminoacylation, catalytic enhancement (BFO) (fold over background); higher = more active; k-Seq, kA / k0A0; sequences stand for … in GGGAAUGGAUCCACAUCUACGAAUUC…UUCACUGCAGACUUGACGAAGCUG
This sample holds only a part of the variants without activity.
quantityName: self-aminoacylation

INSERT INTO measurements (biosequence, studytarget, endpointresult) VALUES
  ('CUCCUUCAAAUAAUCGGUCUG [Fam1A.1 aminoacylation ribozyme variant]', 'biotinyl-Phe-oxazolone', 13.4),
  ('CCACACUCCAAGCAAUCGGGC [Fam1B.1 aminoacylation ribozyme variant]', 'biotinyl-Phe-oxazolone', 1.07),
  ('AUCACCGUGGUCAUCGAGUGA [Fam2.1 aminoacylation ribozyme variant]', 'biotinyl-Phe-oxazolone', 52.5),
  ('AAGUUUUCUAAUUGUCGCAAG [Fam3.1 aminoacylation ribozyme variant]', 'biotinyl-Phe-oxazolone', 2.33);

###

System: biotinyl-Phe-oxazolone
assayMethodText: self-aminoacylation, catalytic enhancement (BFO) (fold over background); higher = more active; k-Seq, kA / k0A0; sequences stand for … in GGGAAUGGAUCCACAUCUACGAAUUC…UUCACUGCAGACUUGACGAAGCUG
Variants at the floor of the assay were thinned out.
Could you label it true (1) if measured self-aminoacylation is 8 or higher, and false (0) otherwise?

INSERT INTO measurements (biosequence, classification) VALUES
  ('AAGUUUGCUUAUAGUCGCAGG [Fam3.1 aminoacylation ribozyme variant]', 'false (0)'),
  ('CUACUUCAUACAAUCGGUCAG [Fam1A.1 aminoacylation ribozyme variant]', 'false (0)'),
  ('AAGUAUGCUAAUAGUCUCAAG [Fam3.1 aminoacylation ribozyme variant]', 'true (1)'),
  ('AUUACCGGGGUCAUCGAGUGA [Fam2.1 aminoacylation ribozyme variant]', 'true (1)'),
  ('CUUCACCUAAGUCAUCGGGUG [Fam2.2 aminoacylation ribozyme variant]', 'true (1)');

###

Test system: biotinyl-Val-oxazolone
assayMethodText: self-aminoacylation, catalytic enhancement (BVO) (fold over background); higher = more active; k-Seq, kA / k0A0; sequences stand for … in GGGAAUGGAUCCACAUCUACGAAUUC…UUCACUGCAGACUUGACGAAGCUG
Fewer inactive variants are shown than the library holds.
quantityName: self-aminoacylation

INSERT INTO measurements (biosequence, quantityname, endpointresult) VALUES
  ('AAAUUUGCUAAUAGGCGCAAG [Fam3.1 aminoacylation ribozyme variant]', 'self-aminoacylation', 1.04),
  ('CUACUCCAAACAAACGGUCUG [Fam1A.1 aminoacylation ribozyme variant]', 'self-aminoacylation', 0.981),
  ('AAGUUUCCUAAUAUUCGCAAG [Fam3.1 aminoacylation ribozyme variant]', 'self-aminoacylation', 0.841),
  ('AUUGACCUAGGACAUCGGGUG [Fam2.2 aminoacylation ribozyme variant]', 'self-aminoacylation', 3.53),
  ('AAGUUUGCUAAGAGUGGCAAG [Fam3.1 aminoacylation ribozyme variant]', 'self-aminoacylation', 1.11),
  ('AUUCACCUAGGUCCUCGGGUU [Fam2.2 aminoacylation ribozyme variant]', 'self-aminoacylation', 2.06),
  ('AAGUUUGCCUAUAGUCGCAAG [Fam3.1 aminoacylation ribozyme variant]', 'self-aminoacylation', 0.981),
  ('AUUCACCUACGUCAGCGGGUG [Fam2.2 aminoacylation ribozyme variant]', 'self-aminoacylation', 2.71),
  ('GUUCACCUAGGUCACCGGGUG [Fam2.2 aminoacylation ribozyme variant]', 'self-aminoacylation', 3.55),
  ('UUUACCCAGGUCAUCGAGUGA [Fam2.1 aminoacylation ribozyme variant]', 'self-aminoacylation', 3.55),
  ('UUUACCGUGGUCAUCGAGUGA [Fam2.1 aminoacylation ribozyme variant]', 'self-aminoacylation', 3.63),
  ('AUUCGCCUAGGUCGUCGGGUG [Fam2.2 aminoacylation ribozyme variant]', 'self-aminoacylation', 2.22),
  ('AUACACCUAUGUCAUCGGGUG [Fam2.2 aminoacylation ribozyme variant]', 'self-aminoacylation', 2.52),
  ('CCGCGCUUCAAGCAAUCGGUC [Fam1B.1 aminoacylation ribozyme variant]', 'self-aminoacylation', 2.74),
  ('AUUACCCUGAUCAUCGAGGGA [Fam2.1 aminoacylation ribozyme variant]', 'self-aminoacylation', 1.21),
  ('AUUACCCUGGUCAGCGUGUGA [Fam2.1 aminoacylation ribozyme variant]', 'self-aminoacylation', 3.59),
  ('AUUACCGUGGUCAUCGAGUGC [Fam2.1 aminoacylation ribozyme variant]', 'self-aminoacylation', 1.05),
  ('AUUCCCCUAGGUCAUUGGGUG [Fam2.2 aminoacylation ribozyme variant]', 'self-aminoacylation', 7.95),
  ('AUUCACCUGGGUCAGCGGGUG [Fam2.2 aminoacylation ribozyme variant]', 'self-aminoacylation', 4.26),
  ('CUACUUGAAACAAUCGGGCUG [Fam1A.1 aminoacylation ribozyme variant]', 'self-aminoacylation', 1.93),
  ('AAGUUUGCUAAGAGUCGAAAG [Fam3.1 aminoacylation ribozyme variant]', 'self-aminoacylation', 0.785),
  ('AUUCACCAAGGGCAUCGGGUG [Fam2.2 aminoacylation ribozyme variant]', 'self-aminoacylation', 5.01),
  ('AUUCACCUAGGUUAUCGCGUG [Fam2.2 aminoacylation ribozyme variant]', 'self-aminoacylation', 2.64),
  ('AUUCGUCUAGGUCAUCGGGUG [Fam2.2 aminoacylation ribozyme variant]', 'self-aminoacylation', 4.85),
  ('AUUACCCUGGGCGUCGAGUGA [Fam2.1 aminoacylation ribozyme variant]', 'self-aminoacylation', 1.44),
  ('CCACACUUCAAGAAAUCUGUC [Fam1B.1 aminoacylation ribozyme variant]', 'self-aminoacylation', 0.402),
  ('AUUCCCCUGGUCAUCGAGUGU [Fam2.1 aminoacylation ribozyme variant]', 'self-aminoacylation', 2.61),
  ('CUAUUUCAAACAAUCCGUCUG [Fam1A.1 aminoacylation ribozyme variant]', 'self-aminoacylation', 0.735),
  ('AUUCACCUAGGGCAACGGGUG [Fam2.2 aminoacylation ribozyme variant]', 'self-aminoacylation', 2.5),
  ('AUUACCAUGGUCAUCGAGUGC [Fam2.1 aminoacylation ribozyme variant]', 'self-aminoacylation', 1.17),
  ('CCACACUUCAUGCAAACGGUC [Fam1B.1 aminoacylation ribozyme variant]', 'self-aminoacylation', 0.774),
  ('AUCGCCCUGGUCAUCGAGUGA [Fam2.1 aminoacylation ribozyme variant]', 'self-aminoacylation', 7.32),
  ('AUUCACGUAGGUGAUCGGGUG [Fam2.2 aminoacylation ribozyme variant]', 'self-aminoacylation', 3.52),
  ('AUUCACAUAGGUCAUCGGGAG [Fam2.2 aminoacylation ribozyme variant]', 'self-aminoacylation', 1.19),
  ('CCGCACUUCAAGGAAUCGGUC [Fam1B.1 aminoacylation ribozyme variant]', 'self-aminoacylation', 1.52);
